ASSAY_TARGET: human HPK1 protein (Homo sapiens)
Construct: recombinant human HPK1 protein (a.a. 1-346) was expressed in Sf9 insect cells; GST (N); purchased Signalchem M23-11G; host or cells: Sf9 insect cells (baculovirus)
Sequence (Q92918 1-346): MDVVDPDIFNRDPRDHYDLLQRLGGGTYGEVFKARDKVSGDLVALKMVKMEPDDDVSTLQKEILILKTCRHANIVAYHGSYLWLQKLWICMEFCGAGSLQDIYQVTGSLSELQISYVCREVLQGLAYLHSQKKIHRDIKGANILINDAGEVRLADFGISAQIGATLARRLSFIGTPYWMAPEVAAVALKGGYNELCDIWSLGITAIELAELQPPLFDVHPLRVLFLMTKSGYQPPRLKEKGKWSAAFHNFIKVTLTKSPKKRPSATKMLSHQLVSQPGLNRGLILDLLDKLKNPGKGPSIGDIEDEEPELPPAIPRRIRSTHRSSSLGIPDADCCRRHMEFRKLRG
ASSAY_REMARKS: Human HPK1 protein TR-FRET assay
Assay type: biochemical
MEASUREMENT_SETUP: 1 mM ATP, Table 19
pIC50: −log10 of the molar value.
Please provide measured pIC50 for the entries that follow.

Completed entries (count: 7):
MOLECULE	ASSAY_TARGET	pIC50
CCN1CCN(Cc2ccc(NC(=O)N3CCc4ccc(Oc5ccnc6[nH]ccc56)c(C)c4C3)cc2C(F)(F)F)CC1	human HPK1 protein (Homo sapiens)	> 6.30
Cc1cc2c(Oc3cnc4c(c3)CN(C(=O)Nc3cnc(OC5CCN(C)CC5)c(C(F)(F)F)c3)CC4C)ccnc2[nH]1 (centres unmarked) [VII-6]	human HPK1 protein (Homo sapiens)	> 6.30
CCN1CCN(Cc2ccc(NC(=O)C3CCc4ccc(Oc5ccnc6[nH]c(C)cc56)cc4N3)cc2C(F)(F)F)CC1 (centres unmarked)	human HPK1 protein (Homo sapiens)	> 6.30
CCN1CCN(Cc2ccc(NC(=O)N3CCc4ncc(Oc5ccnc6[nH]c(C)cc56)cc4C3C)cc2C(F)(F)F)CC1 (centres unmarked) [VIII-1]	human HPK1 protein (Homo sapiens)	5.30 to 6.30
CCN1CCN(Cc2ccc(NC(=O)N3CCc4ccc(Oc5ncnc6[nH]cnc56)cc4C3)cc2C(F)(F)F)CC1	human HPK1 protein (Homo sapiens)	> 6.30
Cc1cc2c(Oc3cnc4c(c3)CN(C(=O)Nc3cnc(OC5CCN(C)CC5)c(C(F)(F)F)c3)CC4C)ncnc2[nH]1 (centres unmarked) [VII-12]	human HPK1 protein (Homo sapiens)	> 6.30
CCC1CN(C(=O)Nc2ccc(CN3CCN(CC)CC3)c(C(F)(F)F)c2)Cc2cc(Oc3ccnc4[nH]ccc34)ccc21 (centres unmarked) [IV-22]	human HPK1 protein (Homo sapiens)	> 6.30

Please turn your attention to the following entry.
Req: May I ask what pIC50 has been recorded for Cc1cc2c(Oc3ccc4c(c3)[C@H](C)N(C(=O)Nc3cnc(OCCN(C)C)c(C(F)(F)F)c3)CC4)ccnc2[nH]1 ?
Resp: 5.30 to 6.30

====

Record form. Attribute: IC50. Fill in for each entry.
ASSAY_TARGET: human HPK1 protein (Homo sapiens)
Construct: recombinant human HPK1 protein (a.a. 1-346) was expressed in Sf9 insect cells; GST (N); purchased Signalchem M23-11G; host or cells: Sf9 insect cells (baculovirus)
Sequence (Q92918 1-346): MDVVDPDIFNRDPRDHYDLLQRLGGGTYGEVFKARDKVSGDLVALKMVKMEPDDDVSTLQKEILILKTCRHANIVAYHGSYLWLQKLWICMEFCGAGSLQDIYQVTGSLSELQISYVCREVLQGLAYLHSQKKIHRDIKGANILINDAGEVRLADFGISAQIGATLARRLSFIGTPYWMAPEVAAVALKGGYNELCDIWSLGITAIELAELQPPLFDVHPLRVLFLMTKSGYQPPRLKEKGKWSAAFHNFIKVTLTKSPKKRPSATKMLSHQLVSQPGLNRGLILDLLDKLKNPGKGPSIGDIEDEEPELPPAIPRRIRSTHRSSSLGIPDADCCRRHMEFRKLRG
ASSAY_REMARKS: Human HPK1 protein TR-FRET assay
Format: biochemical
MEASUREMENT_SETUP: 1 mM ATP, Table 20
Experimental: Exemplary compounds from the above Examples were tested for ability to inhibit HPK1 using a human HPK1 protein TR-FRET Assay. Assay procedures and results are described below. […] The fluorescence resonance energy transfer (FRET) signal was measured on an Envision plate reader: Excitation filter=340 nm, APC emission=665 nm, Europium emission=615 nm, dichroic mirror=D400/D630, delay time=100 μs, and integration time=200 μs. […]

MOLECULE	ASSAY_TARGET	IC50
CC[C@H]1CN(C(=O)Nc2cnc(OC3CCN(C)CC3)c(C(F)(F)F)c2)Cc2cc(Oc3ccnc4[nH]c(CCOC)cc34)cnc21	human HPK1 protein (Homo sapiens)	< 500 nM
CC[C@H]1CN(C(=O)Nc2ccc(CN3CCN(C)CC3)c(C(F)(F)F)c2)Cc2cc(Oc3ccnn4cc(C(=O)NC)nc34)cnc21	human HPK1 protein (Homo sapiens)	500 to 5000 nM

Provide IC50 for all items below, preserving their order.
1. C[C@H]1c2cc(Oc3ccnc4[nH]c(CO)cc34)ccc2CCN1C(=O)Nc1ccc(CN2CCNCC2)c(C(F)(F)F)c1
2. CC[C@H]1CN(C(=O)Nc2ccc(CN3CCN(C)CC3)c(C(F)(F)F)c2)Cc2cc(Oc3ccnc4[nH]c(C(N)=O)cc34)cnc21
3. CC[C@H]1CN(C(=O)Nc2ccc(CN3CCN(C)CC3)c(C(F)(F)F)c2)Cc2cc(Oc3ccnc4[nH]c(C(=O)N5CCCC5)cc34)cnc21
4. CN1CCN(Cc2ncc(NC(=O)N3CCc4cc(F)c(Nc5c(F)cnc6[nH]c(-c7cnn(C)c7)cc56)cc4C3)cc2C(F)(F)F)CC1
5. CCN1CCN(Cc2ccc(NC(=O)N3CCc4ccc(Oc5c(F)cnc6[nH]c(-c7cnn(C)c7)cc56)cc4[C@@H]3C)cc2C(F)(F)F)CC1

Resp:
["< 500 nM", "< 500 nM", "< 500 nM", "< 500 nM", "< 500 nM"]
